# System: HEV-3 replicon p6-Gluc
# Assay name: microbe, parasite or virus in culture
# Format: cell-based, Hepatitis E virus
# Test conditions: Hepatitis E virus, HepG2, 24 h
Parameter measured: EC90

# Compound, Parameter measured, Value reported
rows = [
    ("COC(=O)[C@H]1[C@@H](O)[C@@]2(O)c3c(OC)cc(OC)cc3O[C@@]2(c2ccc(F)cc2)[C@@H]1c1ccccc1 (racemic) [11ba]", "EC90", "> 1000 nM"),
    ("COC(=O)[C@H]1[C@@H](O)[C@@]2(O)c3c(F)cc(F)cc3O[C@@]2(c2ccc(OC)cc2)[C@@H]1c1ccccc1 (racemic)", "EC90", "> 1000 nM"),
    ("COCOc1cc(F)c2c(c1)O[C@@]1(c3ccc(OC)cc3)[C@H](c3ccccc3)[C@@H](C(=O)OC)[C@@H](O)[C@@]21O (racemic)", "EC90", "> 1000 nM"),
    ("COc1cc(OC)c2c(c1)O[C@@]1(c3ccc(F)cc3)[C@H](c3ccccc3)[C@@H](C(=O)N(C)C)[C@@H](O)[C@@]21O (racemic)", "EC90", "> 1000 nM"),
]
